Tested on: SW-620 colon
Experiment: NCI tumour cell line growth inhibition, 48 h
recordedEndpoint: TGI

- compound: "CCOC(=O)NC(C(=O)OCC)(N1CCN(c2cc3c(cc2F)c(=O)c(C(=O)O)cn3CC)CC1)C(F)(F)F (stereo not drawn)"
  targetOrTestSystem: "SW-620 colon"
  observedResult: "> 100 µM"
- compound: "CCCCc1ccc(-n2sc3ncc([N+](=O)[O-])cc3c2=O)cc1"
  targetOrTestSystem: "SW-620 colon"
  observedResult: "35.9 µM"
- compound: "O=c1oc2ccccc2c(O)c1/C=N/C(=S)NCc1ccccc1"
  targetOrTestSystem: "SW-620 colon"
  observedResult: "> 100 µM"
- compound: "CCOC(=O)/C(N=Nc1ccc(-n2c(C)nc3ccc(Br)cc3c2=O)cc1)=C(/C)O"
  targetOrTestSystem: "SW-620 colon"
  observedResult: "> 100 µM"
- compound: "Cc1[nH]c(C(=O)Nc2ccccc2OC2CCNCC2)c(Cl)c1Cl"
  targetOrTestSystem: "SW-620 colon"
  observedResult: "2.39 µM"
- compound: "CCOC(=O)C1=c2[nH]c3cccc4cccc(c43)n2C(=O)CC1c1ccccc1 (stereo not drawn)"
  targetOrTestSystem: "SW-620 colon"
  observedResult: "> 100 µM"
- compound: "CC(=O)Nc1ccc(-c2nc3ccccc3s2)cc1C"
  targetOrTestSystem: "SW-620 colon"
  observedResult: "> 100 µM"
- compound: "C[C@]12CCC[C@H](O)[C@H]1C[C@H](CO)CC2"
  targetOrTestSystem: "SW-620 colon"
  observedResult: "> 100 µM"

These data points were gathered from PubChem BioAssay (NCI).
